Source listed as patent US20240398784A1.

Biological target: LRRK2 G2019S (Homo sapiens, UniProt Q5S007, G2019S)
Sequence (Q5S007 whole entry G2019S): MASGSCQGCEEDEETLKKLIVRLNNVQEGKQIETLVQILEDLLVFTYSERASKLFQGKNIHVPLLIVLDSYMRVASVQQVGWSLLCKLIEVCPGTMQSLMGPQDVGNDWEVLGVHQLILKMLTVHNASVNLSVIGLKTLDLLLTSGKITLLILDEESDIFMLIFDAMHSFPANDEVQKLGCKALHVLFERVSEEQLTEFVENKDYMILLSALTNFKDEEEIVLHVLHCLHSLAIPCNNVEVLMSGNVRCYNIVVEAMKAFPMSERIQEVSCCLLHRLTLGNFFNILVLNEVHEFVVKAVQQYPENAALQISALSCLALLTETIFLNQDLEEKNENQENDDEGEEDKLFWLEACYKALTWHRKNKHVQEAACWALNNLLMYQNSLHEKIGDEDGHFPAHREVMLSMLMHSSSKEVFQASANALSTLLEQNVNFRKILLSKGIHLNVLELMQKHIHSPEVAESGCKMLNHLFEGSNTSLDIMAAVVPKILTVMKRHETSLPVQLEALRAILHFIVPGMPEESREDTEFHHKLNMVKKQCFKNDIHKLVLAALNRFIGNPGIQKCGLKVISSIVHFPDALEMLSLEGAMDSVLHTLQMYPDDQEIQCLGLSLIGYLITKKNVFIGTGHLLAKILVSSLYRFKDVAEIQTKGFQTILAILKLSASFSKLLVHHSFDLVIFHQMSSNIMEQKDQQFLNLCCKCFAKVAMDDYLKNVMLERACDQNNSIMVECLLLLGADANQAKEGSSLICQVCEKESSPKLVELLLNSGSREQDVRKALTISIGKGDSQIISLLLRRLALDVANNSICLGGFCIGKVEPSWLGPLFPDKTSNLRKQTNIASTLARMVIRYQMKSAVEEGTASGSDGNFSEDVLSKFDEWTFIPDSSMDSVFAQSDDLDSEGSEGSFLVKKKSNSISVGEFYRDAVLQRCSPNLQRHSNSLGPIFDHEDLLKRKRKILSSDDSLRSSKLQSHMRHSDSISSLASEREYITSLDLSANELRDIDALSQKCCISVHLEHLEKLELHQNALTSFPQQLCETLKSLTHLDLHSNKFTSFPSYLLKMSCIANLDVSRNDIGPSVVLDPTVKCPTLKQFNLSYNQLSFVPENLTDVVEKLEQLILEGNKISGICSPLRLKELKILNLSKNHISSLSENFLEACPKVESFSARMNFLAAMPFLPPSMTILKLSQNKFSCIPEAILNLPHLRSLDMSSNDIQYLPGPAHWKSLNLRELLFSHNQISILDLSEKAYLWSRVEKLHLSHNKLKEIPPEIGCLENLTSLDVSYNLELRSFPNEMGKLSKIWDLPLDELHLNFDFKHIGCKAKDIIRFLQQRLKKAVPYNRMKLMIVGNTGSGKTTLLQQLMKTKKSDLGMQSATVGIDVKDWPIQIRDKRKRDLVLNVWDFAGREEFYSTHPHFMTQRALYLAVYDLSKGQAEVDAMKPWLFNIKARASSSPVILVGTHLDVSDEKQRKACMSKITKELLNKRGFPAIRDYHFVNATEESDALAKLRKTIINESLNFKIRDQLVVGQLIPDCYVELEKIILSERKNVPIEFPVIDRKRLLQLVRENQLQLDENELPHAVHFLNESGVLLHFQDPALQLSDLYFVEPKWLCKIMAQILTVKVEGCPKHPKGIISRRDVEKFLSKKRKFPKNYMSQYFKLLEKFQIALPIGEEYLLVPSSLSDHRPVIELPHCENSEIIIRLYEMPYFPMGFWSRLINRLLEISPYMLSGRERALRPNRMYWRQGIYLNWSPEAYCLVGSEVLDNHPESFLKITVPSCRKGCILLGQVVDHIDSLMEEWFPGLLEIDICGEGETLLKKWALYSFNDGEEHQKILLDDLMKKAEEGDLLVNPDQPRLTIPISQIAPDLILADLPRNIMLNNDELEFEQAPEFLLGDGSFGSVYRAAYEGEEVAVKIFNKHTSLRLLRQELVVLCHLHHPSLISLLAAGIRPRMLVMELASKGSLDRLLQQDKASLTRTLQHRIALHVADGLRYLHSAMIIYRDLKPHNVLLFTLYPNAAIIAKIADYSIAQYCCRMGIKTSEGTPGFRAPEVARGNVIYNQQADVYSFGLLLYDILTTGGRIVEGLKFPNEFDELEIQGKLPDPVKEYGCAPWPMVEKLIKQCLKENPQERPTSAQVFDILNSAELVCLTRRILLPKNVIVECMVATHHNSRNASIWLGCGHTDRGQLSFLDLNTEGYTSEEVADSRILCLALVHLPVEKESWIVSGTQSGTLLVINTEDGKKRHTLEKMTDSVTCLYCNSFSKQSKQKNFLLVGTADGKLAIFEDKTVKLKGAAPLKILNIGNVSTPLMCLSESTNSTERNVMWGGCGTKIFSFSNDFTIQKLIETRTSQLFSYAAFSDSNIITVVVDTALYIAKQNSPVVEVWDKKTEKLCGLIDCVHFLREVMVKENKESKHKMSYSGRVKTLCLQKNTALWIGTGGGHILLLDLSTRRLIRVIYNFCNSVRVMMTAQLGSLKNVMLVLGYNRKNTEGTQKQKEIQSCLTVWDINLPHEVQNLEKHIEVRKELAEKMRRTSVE
Assay: LRRK2 G2019S Km ATP LanthaScreen assay
Assay type: biochemical
Conditions: read-out: LRRK2 pIC50 (converted)
# IC50 annotations
Kindly provide the numeric value in nM only, without the unit symbol.

[[record]]
molecule = "Cc1cc2cnc(NC(=O)C3CC3C(C)(C)F)cc2cc1C1CCN(C2(C)COCC2O)CC1 (single isomer, unassigned) [Ex-15.5]"
datavalue = 21.4

[[record]]
molecule = "Cn1ncc(C2CC2C(=O)Nc2cc3cc(C4CCN(C5(C)COCC5O)CC4)c(Cl)cc3cn2)c1C(F)(F)F (single isomer, unassigned) [Ex-4.37]"
datavalue = 0.0813


Incoming: Give measured IC50 for Cc1cc2cnc(NC(=O)C3CC3c3ccccn3)cc2cc1C1CCN(C2(C)CCOC2)CC1 (single isomer, unassigned) [Ex-16.12] (LRRK2 G2019S (Homo sapiens, UniProt Q5S007, G2019S)).
Outgoing: 0.0813

Incoming: Give measured IC50 for COCC(C)c1cc2cc(NC(=O)C3CC34CCOCC4)ncc2cc1Cl (single isomer, unassigned) [Ex-9.11] (LRRK2 G2019S (Homo sapiens, UniProt Q5S007, G2019S)).
Outgoing: 44.7

Incoming: Give measured IC50 for CC1(C)CC(C(=O)Nc2cc3cc(C4(C#N)CC45CC5)ccc3cn2)CC(C)(C)O1 (single isomer, unassigned) [Ex-1.27] (LRRK2 G2019S (Homo sapiens, UniProt Q5S007, G2019S)).
Outgoing: 9.77

Incoming: Give measured IC50 for CC1(N2CCC(c3cc4cc(NC(=O)C5CC5C#N)ncc4cc3Cl)CC2)COCC1O (stereo not drawn) [Ex-2.32] (LRRK2 G2019S (Homo sapiens, UniProt Q5S007, G2019S)).
Outgoing: 0.0813

Incoming: Give measured IC50 for CC1(C)CC(C(=O)Nc2cc3cc(C4(C#N)CC45CC5)ccc3cn2)CCO1 (stereo not drawn) [Ex-2.58] (LRRK2 G2019S (Homo sapiens, UniProt Q5S007, G2019S)).
Outgoing: 11.2

Incoming: Give measured IC50 for CC1(C)CC1C(=O)Nc1cc2cc(C3CCN(C4(C)COCC4O)CC3)c(Cl)cc2cn1 (stereo not drawn) [Ex-2.11] (LRRK2 G2019S (Homo sapiens, UniProt Q5S007, G2019S)).
Outgoing: 2

Incoming: Give measured IC50 for CC(C(=O)Nc1cc2cc(C3(C#N)CC34CC4)ccc2cn1)c1cnn(C)c1 (stereo not drawn) [Ex-2.110] (LRRK2 G2019S (Homo sapiens, UniProt Q5S007, G2019S)).
Outgoing: 0.575
